Tested on: KOR H291A mutant
measurement notes: 3H-U69593 binding at KOR single point mutant H291A
condition details: vs wild type KOR
measured parameter: effect of H291A mutation on ligand affinity (fold reduction vs WT KOR)

compound | obs value
CCN(Cc1csc(C)n1)C(C)c1cccc(O)c1 (stereo not shown) | more than 10 fold
COc1ccc(CNCC(O)c2cccc(O)c2)cc1Br (stereo not shown) | more than 10 fold
Oc1cccc(C(O)CNCc2ccc(Cl)cc2Cl)c1 (stereo not shown) | more than 10 fold

* * *

Tested on: KOR M142A mutant
measurement notes: 3H-U69593 binding at KOR single point mutant M142A
condition details: vs wild type KOR
measured parameter: effect of M142A mutation on ligand binding (fold reduction of binding vs WT KOR)

compound | obs value
Oc1cccc(C(O)CNCc2ccc(Cl)cc2Cl)c1 (stereo not drawn) | at least 10 fold
COC(=O)[C@@H]1C[C@H](OC(C)=O)C(=O)[C@H]2[C@@]1(C)CC[C@H]1C(=O)O[C@H](c3ccoc3)C[C@]21C [Sal A, salvinorin A, reference compound] | at least 10 fold
Cc1c(C(=O)NCC(c2ccco2)N2CCCC2)oc2ccc(Cl)cc12 (stereo not drawn) | enhancing binding
COc1ccc(CNCC(O)c2cccc(O)c2)cc1Br (stereo not drawn) | at least 10 fold
Cc1ccc(C(CNC(=O)c2oc3ccccc3c2C)N2CCCC2)o1 (stereo not drawn) | enhancing binding

Attention now turns to another entry.
In: Value lookup for effect of M142A mutation on ligand binding (fold reduction of binding vs WT KOR); key = Cc1ccc(C(CNC(=O)c2oc3ccc(F)cc3c2C)N2CCCC2)o1 (stereo not drawn)
Out: enhancing binding

* * *

System: KOR I294A mutant
measurement notes: 3H-U69593 binding at KOR single point mutant I294A
condition details: vs wild type KOR
measured parameter: effect of I294A mutation on ligand affinity (fold reduction vs WT KOR)

compound | obs value
CCN(Cc1csc(C)n1)C(C)c1cccc(O)c1 (stereo not shown) | more than 10 fold
COc1ccc(CNCC(O)c2cccc(O)c2)cc1Br (stereo not shown) | more than 10 fold
Oc1cccc(C(O)CNCc2ccc(Cl)cc2Cl)c1 (stereo not shown) | more than 10 fold

* * *

subject of test: UniProtKB P41145
Type: binding
condition details: Table 2 derivatives; LE = 1.4(−logKi)/N
measured parameter: LE (Ligand Efficiency)

Look over these answered cases.
compound | subject of test | LE (Ligand Efficiency)
O=C(NC[C@@H](c1ccco1)N1CCCC1)c1cc2ccccc2o1 | UniProtKB P41145 | 0.35 kcal/mol per heavy atom
Cc1ccc(C(CNC(=O)c2oc3ccc(F)cc3c2C)N2CCCC2)o1 (stereo not shown) | UniProtKB P41145 | 0.32 kcal/mol per heavy atom
COc1ccc2oc(C(=O)NCC(c3ccco3)N3CCCC3)c(C)c2c1 (stereo not shown) | UniProtKB P41145 | 0.32 kcal/mol per heavy atom

Attention now turns to another entry.
In: Value lookup for LE (Ligand Efficiency); key = Oc1cccc(C(O)CNCc2ccc(Cl)cc2Cl)c1 (stereo not shown)
Out: 0.47 kcal/mol per heavy atom
